This collection of values is drawn from ChEMBL document CHEMBL1201862.

Test system: T47D
Procedure details: NCI tumour cell line growth inhibition, 48 h
Activity calls are given as the source filed them. Rule as the data show it: active = GI50 up to about 1.1 µM and inactive = higher.
Respond only with the outcome that fits, drawn from class 1 = active, class 0 = inactive

{"Compound": "Cc1ccc2[nH]c3c(C)c4cc[n+](C)cc4c(C)c3c2c1", "Assigned category": "class 0"}
{"Compound": "Cc1ccc(/C=C2\\Cc3cccc(C)c3C2=O)c(C(=O)O)c1", "Assigned category": "class 0"}

With those in mind, consider the next compound.
Qu. Please share the test call associated with COc1ccc2c(c1)[n+]([O-])c(/C(C)=N/NC(N)=S)c(C)[n+]2[O-] .
Ans. class 0

---

System: M14
Procedure details: NCI tumour cell line growth inhibition, 48 h
The source made the active and inactive calls. Rule as the data show it: active = GI50 up to about 1.1 µM and inactive = higher.
Endpoint label: GI50

Previously resolved entries follow.
{"Compound": "C/C(=N/NC(=S)N(C)C)c1ccccc1O", "Endpoint value": "7.35 µM (inactive)"}
{"Compound": "O=[N+]([O-])C(=C(\\Cl)NCCO)/C(Cl)=C(/Cl)Br", "Endpoint value": "1.57 µM (inactive)"}

Record summary for CC[C@@]1(N(C)C)C(=O)OCc2c1cc1n(c2=O)Cc2cc3ccccc3nc2-1 : reported GI50 = > 100 µM (inactive)

Record summary for COC(=O)C(=O)C(C#N)c1nc2ccccc2s1 (stereo unspecified) : reported GI50 = > 100 µM (inactive)

Record summary for O=C(Nc1nc2ncn(CCOC(=O)c3ccccc3)c2c(=S)[nH]1)c1ccccc1 : reported GI50 = > 100 µM (inactive)

Record summary for CN(NC(=O)c1ccco1)C1=NCCN1 : reported GI50 = > 100 µM (inactive)

---

Tested on: COLO 205
Procedure details: NCI tumour cell line growth inhibition, 48 h
Calls of active or inactive are those of the source. Rule as the data show it: active = GI50 up to about 1.1 µM and inactive = higher.
Endpoint label: GI50

Previously resolved entries follow.
{"Compound": "COc1ccc2c([nH]c3cc(O)c(C)cc32)c1CC=C(C)C", "System under test": "COLO 205", "GI50": "> 25 µM (inactive)"}
{"Compound": "Nc1ccc(OCC(O)N2C(=O)c3ccccc3C2=O)cc1 (stereo unspecified)", "System under test": "COLO 205", "GI50": "> 100 µM (inactive)"}
{"Compound": "N#C/C(=C\\c1ccc(O)cc1)C(N)=O", "System under test": "COLO 205", "GI50": "> 100 µM (inactive)"}
{"Compound": "CCCSCC(P(=O)(O)O)P(=O)(O)O.NC1CCCCC1", "System under test": "COLO 205", "GI50": "> 100 µM (inactive)"}
{"Compound": "CCOC(=O)Cn1c(=O)c2nc(SC)sc2n(CC)c1=S", "System under test": "COLO 205", "GI50": "> 100 µM (inactive)"}

Let us move to another entry and its GI50.
Record summary for COc1ccc2c(c1)[n+]([O-])c(/C(C)=N/NC(N)=S)c(C)[n+]2[O-] : reported GI50 = 38.8 µM (inactive)

---

System: SW-620
Procedure details: NCI tumour cell line growth inhibition, 48 h
Calls of active or inactive are those of the source. Rule as the data show it: active = GI50 up to about 1.1 µM and inactive = higher.
Endpoint label: GI50

Previously resolved entries follow.
{"Molecule": "O=C(NCCCCCCNC(=O)c1cccc2ccccc12)Nc1cccc2ccccc12", "GI50": "> 100 µM (inactive)"}
{"Molecule": "CC1(C)CCCOc2cccc(c2)OCCCC(C)(C)C1=O", "GI50": "27 µM (inactive)"}
{"Molecule": "CC(C)(C)OC(=O)N1CCC23CCCC2C(=O)CC=C13 (stereo not given)", "GI50": "> 100 µM (inactive)"}
{"Molecule": "COC(=O)C1=C(C)N2CCCOC2(C)C(C(=O)OC)C1c1cccc(Cl)c1 (stereo not given)", "GI50": "> 100 µM (inactive)"}

Record summary for COc1ccc(C(=O)Oc2c(C#N)sc3c2c(=O)n(-c2ccccc2)c(=S)n3-c2ccccc2)cc1 : reported GI50 = 32.7 µM (inactive)

---

Tested on: SF-295
Procedure details: NCI tumour cell line growth inhibition, 48 h
Activity calls are given as the source filed them. No stated cut-off is given here; in the data, active = GI50 up to about 1.1 µM and inactive = higher.
Respond only with the outcome that fits, drawn from True for active, False for inactive

{"Compound": "Cc1cnc2nc(-c3ccc(Cl)cc3)cc(O)c2c1", "Assigned category": "False"}
{"Compound": "CC1=C(C(=O)OC(C)C)C(c2ccccc2[N+](=O)[O-])C(C(=O)OC(CO[N+](=O)[O-])CO[N+](=O)[O-])=C(C)N1 (stereo unspecified)", "Assigned category": "False"}

Qu. Please share the test call associated with C=CCCn1nc(-c2ccccc2)oc1=O .
Ans. False

Qu. Please share the test call associated with Cc1cn2c(=O)c3ccccc3nc2s1 .
Ans. False

---

Test system: M19-MEL
Procedure details: NCI tumour cell line growth inhibition, 48 h
Active and inactive are the calls of the source. Rule as the data show it: active = GI50 up to about 1.1 µM and inactive = higher.
Each entry below lists one item and its recorded GI50 value.

Previously resolved entries follow.
{"Compound": "Cc1cc(C)nc(NS(=O)(=O)c2ccc(Nc3c4ccccc4nc4c(C(=O)Nc5ccc(S(=O)(=O)Nc6cc(C)on6)cc5)cccc34)cc2)n1", "System under test": "M19-MEL", "GI50": "23.4 µM (inactive)"}
{"Compound": "CCCN1CC=CCC1", "System under test": "M19-MEL", "GI50": "> 100 µM (inactive)"}
{"Compound": "CC(=O)OC12/C(=N/O)CCCCCC1c1ccccc12 (stereo not given)", "System under test": "M19-MEL", "GI50": "> 100 µM (inactive)"}
{"Compound": "C#CCN(N=O)C(=O)NC(CCCCNC(=O)OCc1ccccc1)C(=O)OCc1ccccc1 (stereo not given)", "System under test": "M19-MEL", "GI50": "34.2 µM (inactive)"}

Let us move to another entry and its GI50.
Bench note, M19-MEL: entry COc1ccc(/C(C=O)=C(\Cl)c2ccc(OC)c(OC)c2)cc1 , its GI50 = > 100 µM (inactive)

---

Tested on: NCI-H226
Procedure details: NCI tumour cell line growth inhibition, 48 h
Calls of active or inactive are those of the source. No stated cut-off is given here; in the data, active = GI50 up to about 1.1 µM and inactive = higher.
Respond only with the outcome that fits, drawn from active, inactive

{"Compound": "CC(=O)/C(=C/N1CCNC1=S)C(=O)Nc1ccccc1C", "Assigned category": "inactive"}
{"Compound": "CC1(C)N=c2c(ncn2CCO)=C(C(N)=O)N1", "Assigned category": "inactive"}

Qu. Please share the test call associated with COC1C(O)C(C)OC(O[C@@H]2C[C@H]3CC[C@@H]4[C@H](CC[C@]5(C)[C@@H](C6=CC(=O)OC6)CC[C@]45O)[C@@]3(C)[C@H](O)C2)C1O (some centres not stated) .
Ans. active

Qu. Please share the test call associated with OC1=C(c2ccccc2)C2=NCCN2c2ccccc21 .
Ans. inactive

Qu. Please share the test call associated with CC(=O)On1c(-c2ccccc2-c2nc3ccccc3n2OC(C)=O)nc2ccccc21 .
Ans. inactive

Qu. Please share the test call associated with COc1ccc(C(=O)Oc2c(C#N)sc3c2c(=O)n(-c2ccccc2)c(=S)n3-c2ccccc2)cc1 .
Ans. inactive

Qu. Please share the test call associated with COC(=O)NC1=NNC(=O)c2ccccc2N1 .
Ans. inactive

---

Tested on: DMS-273
Procedure details: NCI tumour cell line growth inhibition, 48 h
Active and inactive are the calls of the source. Rule as the data show it: active = GI50 up to about 1.1 µM and inactive = higher.
Endpoint label: GI50

Previously resolved entries follow.
{"Molecule": "CC1(c2ccc(F)cc2)C2C(=O)NC(=O)C1C(=O)NC2=O (stereo not drawn)", "System under test": "DMS-273", "Endpoint value": "> 100 µM (inactive)"}
{"Molecule": "Cc1ccc(SC(CCC(Sc2ccc(C)cc2)Sc2ccc(C)cc2)Sc2ccc(C)cc2)cc1", "System under test": "DMS-273", "Endpoint value": "> 100 µM (inactive)"}
{"Molecule": "CC(=O)O[C@]1(C(C)=O)CC[C@H]2[C@@H]3C[C@H](C)C4=CC(=O)C=C[C@]4(C)[C@@]3(F)[C@@H](O)C[C@@]21C [FLUOROMETHOLONE ACETATE]", "System under test": "DMS-273", "Endpoint value": "41.7 µM (inactive)"}
{"Molecule": "NC(=S)N/N=C(\\CCC(=O)Nc1ccccc1[N+](=O)[O-])CC(=O)c1ccco1", "System under test": "DMS-273", "Endpoint value": "> 100 µM (inactive)"}
{"Molecule": "CCCNC(=O)Nc1c([N+](=O)[O-])cc(C(F)(F)F)cc1[N+](=O)[O-]", "System under test": "DMS-273", "Endpoint value": "> 100 µM (inactive)"}
{"Molecule": "O=C(Nc1nc2ncn(CCOC(=O)c3ccccc3)c2c(=S)[nH]1)c1ccccc1", "System under test": "DMS-273", "Endpoint value": "50.9 µM (inactive)"}
{"Molecule": "CC1=C[C@]2(O)C(=O)[C@H](C)C[C@H]3[C@@H](CC[C@@](C)(O)/C=C\\2C1=O)C3(C)C", "System under test": "DMS-273", "Endpoint value": "22.4 µM (inactive)"}
{"Molecule": "O=C(/C=C/c1c(O)ccc2ccccc12)c1cccc2ccccc12", "System under test": "DMS-273", "Endpoint value": "> 100 µM (inactive)"}

Bench note, DMS-273: entry O=C(CC(=O)C1=CNc2ccccc2S1)C(=O)Nc1ccc(Cl)cc1 , its GI50 = > 50 µM (inactive)
